Where do these numbers come from? They come from BigSolDB 2.1.

- test.conditions: in acetonitrile, 323.15 K
attribute.measured: solubility (mole fraction)
Lab note: write the figure by itself, no unit.

Query: Given O=C(O)CC(S)C(=O)O (stereo unspecified) , respond with its solubility (mole fraction).
Result: 0.135

----------
- test.conditions: in acetone, 298.15 K
attribute.measured: solubility (mole fraction)
Lab note: write the figure by itself, no unit.

Query: Given O=C(O)CC(S)C(=O)O (stereo unspecified) , respond with its solubility (mole fraction).
Result: 0.168

----------
- test.conditions: in acetone, 293.15 K
attribute.measured: solubility (mole fraction)
Lab note: write the figure by itself, no unit.

Query: Given O=C(O)CC(S)C(=O)O (stereo unspecified) , respond with its solubility (mole fraction).
Result: 0.159

----------
- test.conditions: in ethyl acetate, 318.15 K
attribute.measured: solubility (mole fraction)
Lab note: write the figure by itself, no unit.

Query: Given O=C(O)CC(S)C(=O)O (stereo unspecified) , respond with its solubility (mole fraction).
Result: 0.0787

----------
- test.conditions: in n-butanol, 288.15 K
attribute.measured: solubility (mole fraction)

Query: Given O=C(O)CC(S)C(=O)O (stereo unspecified) , respond with its solubility (mole fraction).
Result: 0.118

----------
- test.conditions: in ethanol, 313.15 K
attribute.measured: solubility (mole fraction)
Lab note: write the figure by itself, no unit.

Query: Given O=C(O)CC(S)C(=O)O (stereo unspecified) , respond with its solubility (mole fraction).
Result: 0.265

----------
- test.conditions: in n-butanol, 318.15 K
attribute.measured: solubility (mole fraction)
Lab note: write the figure by itself, no unit.

Query: Given O=C(O)CC(S)C(=O)O (stereo unspecified) , respond with its solubility (mole fraction).
Result: 0.236

----------
- test.conditions: in acetonitrile, 298.15 K
attribute.measured: solubility (mole fraction)

Query: Given O=C(O)CC(S)C(=O)O (stereo unspecified) , respond with its solubility (mole fraction).
Result: 0.0392

----------
- test.conditions: in ethyl acetate, 308.15 K
attribute.measured: solubility (mole fraction)

Query: Given O=C(O)CC(S)C(=O)O (stereo unspecified) , respond with its solubility (mole fraction).
Result: 0.068

----------
- test.conditions: in isopropanol, 328.15 K
attribute.measured: solubility (mole fraction)
Lab note: write the figure by itself, no unit.

Query: Given O=C(O)CC(S)C(=O)O (stereo unspecified) , respond with its solubility (mole fraction).
Result: 0.28

----------
- test.conditions: in acetone, 318.15 K
attribute.measured: solubility (mole fraction)
Lab note: write the figure by itself, no unit.

Query: Given O=C(O)CC(S)C(=O)O (stereo unspecified) , respond with its solubility (mole fraction).
Result: 0.213

----------
- test.conditions: in methanol, 298.15 K
attribute.measured: solubility (mole fraction)
Lab note: write the figure by itself, no unit.

Query: Given O=C(O)CC(S)C(=O)O (stereo unspecified) , respond with its solubility (mole fraction).
Result: 0.203

----------
- test.conditions: in acetone, 313.15 K
attribute.measured: solubility (mole fraction)
Lab note: write the figure by itself, no unit.

Query: Given O=C(O)CC(S)C(=O)O (stereo unspecified) , respond with its solubility (mole fraction).
Result: 0.202

----------
- test.conditions: in acetone, 328.15 K
attribute.measured: solubility (mole fraction)
Lab note: write the figure by itself, no unit.

Query: Given O=C(O)CC(S)C(=O)O (stereo unspecified) , respond with its solubility (mole fraction).
Result: 0.24

----------
- test.conditions: in n-butanol, 323.15 K
attribute.measured: solubility (mole fraction)
Lab note: write the figure by itself, no unit.

Query: Given O=C(O)CC(S)C(=O)O (stereo unspecified) , respond with its solubility (mole fraction).
Result: 0.261

----------
- test.conditions: in ethyl acetate, 303.15 K
attribute.measured: solubility (mole fraction)
Lab note: write the figure by itself, no unit.

Query: Given O=C(O)CC(S)C(=O)O (stereo unspecified) , respond with its solubility (mole fraction).
Result: 0.0634

----------
- test.conditions: in ethanol, 298.15 K
attribute.measured: solubility (mole fraction)
Lab note: write the figure by itself, no unit.

Query: Given O=C(O)CC(S)C(=O)O (stereo unspecified) , respond with its solubility (mole fraction).
Result: 0.205

----------
- test.conditions: in n-butanol, 308.15 K
attribute.measured: solubility (mole fraction)
Lab note: write the figure by itself, no unit.

Query: Given O=C(O)CC(S)C(=O)O (stereo unspecified) , respond with its solubility (mole fraction).
Result: 0.192

----------
- test.conditions: in methanol, 288.15 K
attribute.measured: solubility (mole fraction)

Query: Given O=C(O)CC(S)C(=O)O (stereo unspecified) , respond with its solubility (mole fraction).
Result: 0.157

----------
- test.conditions: in n-butanol, 303.15 K
attribute.measured: solubility (mole fraction)
Lab note: write the figure by itself, no unit.

Query: Given O=C(O)CC(S)C(=O)O (stereo unspecified) , respond with its solubility (mole fraction).
Result: 0.172

----------
- test.conditions: in n-butanol, 333.15 K
attribute.measured: solubility (mole fraction)
Lab note: write the figure by itself, no unit.

Query: Given O=C(O)CC(S)C(=O)O (stereo unspecified) , respond with its solubility (mole fraction).
Result: 0.313

----------
- test.conditions: in isopropanol, 333.15 K
attribute.measured: solubility (mole fraction)

Query: Given O=C(O)CC(S)C(=O)O (stereo unspecified) , respond with its solubility (mole fraction).
Result: 0.305

----------
- test.conditions: in acetonitrile, 288.15 K
attribute.measured: solubility (mole fraction)
Lab note: write the figure by itself, no unit.

Query: Given O=C(O)CC(S)C(=O)O (stereo unspecified) , respond with its solubility (mole fraction).
Result: 0.0212

----------
- test.conditions: in acetone, 323.15 K
attribute.measured: solubility (mole fraction)
Lab note: write the figure by itself, no unit.

Query: Given O=C(O)CC(S)C(=O)O (stereo unspecified) , respond with its solubility (mole fraction).
Result: 0.226

----------
- test.conditions: in isopropanol, 308.15 K
attribute.measured: solubility (mole fraction)
Lab note: write the figure by itself, no unit.

Query: Given O=C(O)CC(S)C(=O)O (stereo unspecified) , respond with its solubility (mole fraction).
Result: 0.192

----------
- test.conditions: in methanol, 293.15 K
attribute.measured: solubility (mole fraction)
Lab note: write the figure by itself, no unit.

Query: Given O=C(O)CC(S)C(=O)O (stereo unspecified) , respond with its solubility (mole fraction).
Result: 0.178

----------
- test.conditions: in ethyl acetate, 298.15 K
attribute.measured: solubility (mole fraction)
Lab note: write the figure by itself, no unit.

Query: Given O=C(O)CC(S)C(=O)O (stereo unspecified) , respond with its solubility (mole fraction).
Result: 0.0595

----------
- test.conditions: in ethyl acetate, 278.15 K
attribute.measured: solubility (mole fraction)
Lab note: write the figure by itself, no unit.

Query: Given O=C(O)CC(S)C(=O)O (stereo unspecified) , respond with its solubility (mole fraction).
Result: 0.0454

----------
- test.conditions: in acetonitrile, 313.15 K
attribute.measured: solubility (mole fraction)
Lab note: write the figure by itself, no unit.

Query: Given O=C(O)CC(S)C(=O)O (stereo unspecified) , respond with its solubility (mole fraction).
Result: 0.0853

----------
- test.conditions: in methanol, 313.15 K
attribute.measured: solubility (mole fraction)
Lab note: write the figure by itself, no unit.

Query: Given O=C(O)CC(S)C(=O)O (stereo unspecified) , respond with its solubility (mole fraction).
Result: 0.285

----------
- test.conditions: in n-butanol, 328.15 K
attribute.measured: solubility (mole fraction)
Lab note: write the figure by itself, no unit.

Query: Given O=C(O)CC(S)C(=O)O (stereo unspecified) , respond with its solubility (mole fraction).
Result: 0.286

----------
- test.conditions: in n-butanol, 298.15 K
attribute.measured: solubility (mole fraction)
Lab note: write the figure by itself, no unit.

Query: Given O=C(O)CC(S)C(=O)O (stereo unspecified) , respond with its solubility (mole fraction).
Result: 0.153

----------
- test.conditions: in acetonitrile, 283.15 K
attribute.measured: solubility (mole fraction)
Lab note: write the figure by itself, no unit.

Query: Given O=C(O)CC(S)C(=O)O (stereo unspecified) , respond with its solubility (mole fraction).
Result: 0.0159

----------
- test.conditions: in isopropanol, 303.15 K
attribute.measured: solubility (mole fraction)
Lab note: write the figure by itself, no unit.

Query: Given O=C(O)CC(S)C(=O)O (stereo unspecified) , respond with its solubility (mole fraction).
Result: 0.174

----------
- test.conditions: in methanol, 308.15 K
attribute.measured: solubility (mole fraction)
Lab note: write the figure by itself, no unit.

Query: Given O=C(O)CC(S)C(=O)O (stereo unspecified) , respond with its solubility (mole fraction).
Result: 0.256

----------
- test.conditions: in acetone, 288.15 K
attribute.measured: solubility (mole fraction)
Lab note: write the figure by itself, no unit.

Query: Given O=C(O)CC(S)C(=O)O (stereo unspecified) , respond with its solubility (mole fraction).
Result: 0.149

----------
- test.conditions: in n-butanol, 283.15 K
attribute.measured: solubility (mole fraction)
Lab note: write the figure by itself, no unit.

Query: Given O=C(O)CC(S)C(=O)O (stereo unspecified) , respond with its solubility (mole fraction).
Result: 0.105
